system: BDF1 mice, B16 melanoma ip, median survival T/C; test: NCI In Vivo Anticancer Drug Screen. Data for tumor model B16 Melanoma (intraperitoneal) in B6D2F1 (BDF1) mice; conditions: endpoint: median survival time; dose: 200.0 mg/kg/injection; schedule: Q04DX003 (ip); vehicle: Klucel (hydroxypropylcellulose) (HPC); higher = longer survival
Inconclusive results and toxic doses are left out.

molecule: Cc1cc(C(C)C)cc(C(C)C)c1
T/C: 97 % of control

molecule: S=C1SCN(C2CCCCC2)CN1C1CCCCC1
T/C: 90 % of control

molecule: COc1ccc(N=C(C(=Nc2ccc(OC)cc2)c2ccccc2)c2ccccc2)cc1
T/C: 103 % of control

molecule: CCOC(=O)/C(Cc1cc[n+]([O-])c2ccccc12)=N/O
T/C: 97 % of control

molecule: COC(=O)C1C2CC(C3OC23)C1C(=O)OC (stereo unspecified)
T/C: 100 % of control

molecule: COc1ccc(C(C(N)=O)N2CCOCC2)cc1 (stereo unspecified)
T/C: 95 % of control

----------
system: BDF1 mice, B16 melanoma ip, median survival T/C; test: NCI In Vivo Anticancer Drug Screen. Data for tumor model B16 Melanoma (intraperitoneal) in B6D2F1 (BDF1) mice; settings: endpoint: median survival time; dose: 12.5 mg/kg/injection; schedule: Q01DX009 (ip); vehicle: saline with Tween-80
Inconclusive results and toxic doses are left out. Rule for the calls: active = survival T/C of 150% or more; inactive = T/C below 125% in these data.
Classes used: 1.0 for active, 0.0 for inactive

compound: ClC1=C(Cl)C2(Cl)C(COc3ccc(Cl)cc3)CC1(Cl)C2(Cl)Cl (stereo unspecified)
class_label: 0.0
--
compound: CC(=O)OC(CC(O)(C(F)(F)F)C(F)(F)F)C(C)(C)C (stereo unspecified)
class_label: 0.0
--
compound: C1CC[N-]CC1.C1CC[N-]CC1.[Cl][Rh]([Cl])[Cl]
class_label: 0.0
--
compound: CC(C)N1C(=O)C=C(c2ccc([N+](=O)[O-])cc2)C1=O
class_label: 0.0
--
compound: C[C@]12CCC(=O)C=C1CC[C@@H]1[C@@H]2C(=O)C[C@]2(C)C3=CC(=O)O[C@H]3C[C@@H]12
class_label: 0.0
--
compound: COc1ccc(C(=O)c2no[n+]([O-])c2C(=O)c2ccc(OC)cc2)cc1
class_label: 0.0
--
compound: C=C/C(C)=C/[C@H](C)C(=O)C[C@H](O)CC1CC(=O)NC(=O)C1
class_label: 0.0
--
compound: COc1cc(C(C)(C)C)cc(OC)c1C(O)(c1c(OC)cc(C(C)(C)C)cc1OC)c1c(OC)cc(C(C)(C)C)cc1OC
class_label: 0.0
--
compound: O=C1CC(C(=O)N2Cc3cc4ccccc4nc3C2)CO1 (stereo unspecified)
class_label: 0.0
--
compound: Cc1ccc(NC(=O)COc2ccc(Cl)cc2)c(C)c1
class_label: 0.0
--
compound: O=C1C2(Cl)C3(Cl)C4(Cl)C(Cl)(Cl)C5(Cl)[C@]3(Cl)C1(Cl)[C@]5(Cl)C24Cl (stereo partly specified)
class_label: 0.0
--
compound: C[CH2][Ge]([CH2]C)[CH2]C.C[CH2][Ge]([CH2]C)[CH2]C.C[CH2][Ge]([CH2]C)[O][Ge]([CH2]C)[CH2]C
class_label: 0.0
--
compound: CCC[CH2][Sn]1([CH2]CCC)[S]CC[N]1S(=O)(=O)c1ccc(C)cc1
class_label: 0.0
--
compound: Nc1ccn(C2OC(COC(=O)C34CC5CC(CC(C5)C3)C4)C(O)C2O)c(=O)n1 (stereo unspecified)
class_label: 1.0
--
compound: CCCCOc1ccc(NC(N)=Nc2ccc(Cl)cc2)cc1
class_label: 0.0
--
compound: CCO/C=C1\SC(=S)N(c2ccc(C(=O)O)cc2)C1=O
class_label: 0.0
--
compound: CCCCOc1ccc(NC(=O)CCl)cc1
class_label: 0.0
--
compound: CCCCn1cnc2c(=S)nc[nH]c21
class_label: 0.0
--
compound: O=C(Nc1ccccc1C(F)(F)F)C(c1ccccc1)c1ccccc1
class_label: 0.0
--
compound: O=C(Nc1cc(Cl)ccc1Cl)c1ccc(Cl)cc1Cl
class_label: 0.0
--
compound: O=[N+]([O-])c1cc(Cl)cc2c1nc(NCCO)c1ccccc12
class_label: 0.0

----------
tested on: BDF1 mice, B16 melanoma ip, median survival T/C; experiment: NCI In Vivo Anticancer Drug Screen. Data for tumor model B16 Melanoma (intraperitoneal) in B6D2F1 (BDF1) mice; conditions: endpoint: median survival time; dose: 12.0 mg/kg/injection; schedule: Q01DX009 (ip); vehicle: saline with Tween-80; higher = longer survival
Inconclusive results and toxic doses are left out.
Listed here are compounds together with their documented T/C.

compound: O=C(Nc1ccccc1C(F)(F)F)c1ccc(C(=O)Nc2ccccc2C(F)(F)F)cc1
T/C: 90 % of control
--
compound: C/C=C1\CN(C)[C@H]2Cc3c([nH]c4ccccc34)[C@@H](c3cc4[nH]c5c(c4cc3OC)CCN3C[C@H]4C[C@H](CC)[C@H]3[C@@]5(C(=O)OC)C4)C[C@H]1C2C(=O)OC (some centres undefined)
T/C: 106 % of control
--
compound: COc1cccnc1/C=N/NC(N)=S
T/C: 98 % of control
--
compound: COc1ccc(NC(=O)Oc2ccccc2-c2ccccc2)cc1
T/C: 95 % of control

----------
test system: BDF1 mice, B16 melanoma ip, median survival T/C; assay: NCI In Vivo Anticancer Drug Screen. Data for tumor model B16 Melanoma (intraperitoneal) in B6D2F1 (BDF1) mice; settings: endpoint: median survival time; dose: 25.0 mg/kg/injection; schedule: Q04DX003 (ip); vehicle: saline with Tween-80; higher = longer survival
Inconclusive results and toxic doses are left out.

molecule: O=C1CCCNc2ccccc21
tgt: BDF1 mice, B16 melanoma ip, median survival T/C
T/C: 100 % of control
--
molecule: CC(C)=C(C=O)CCC(C)C
tgt: BDF1 mice, B16 melanoma ip, median survival T/C
T/C: 100 % of control
--
molecule: CCOC(=O)C1=C(O)c2c(sc(C)c2C)N(S(=O)(=O)c2ccc(C)cc2)CC1
tgt: BDF1 mice, B16 melanoma ip, median survival T/C
T/C: 113 % of control
--
molecule: CC(C)(C)OC(=O)NC(CCCCNC(=O)C(F)(F)F)C(=O)ON1C(=O)CCC1=O (centres undefined)
tgt: BDF1 mice, B16 melanoma ip, median survival T/C
T/C: 114 % of control

----------
tested on: BDF1 mice, B16 melanoma ip, median survival T/C; assay: NCI In Vivo Anticancer Drug Screen. Data for tumor model B16 Melanoma (intraperitoneal) in B6D2F1 (BDF1) mice; settings: endpoint: median survival time; dose: 200.0 mg/kg/injection; schedule: Q01DX009 (ip); vehicle: Klucel (hydroxypropylcellulose) (HPC); higher = longer survival
Inconclusive results and toxic doses are left out.
experimental_readout: T/C

compound: Cc1cc(=O)[nH]c(N/N=C/c2ccccc2O)n1
test_result: 87 % of control

compound: CC/C=C/c1cccc(OC)c1
test_result: 96 % of control

compound: CCCN1CSC(=S)N(CCC)C1
test_result: 102 % of control

compound: COc1ccc(NC(=O)Nc2ccccc2F)cc1
test_result: 97 % of control

compound: Cc1cc(Cl)ccc1NC(=O)c1ccccc1C(=O)O
test_result: 100 % of control

compound: O=S(=O)(O)CNc1cc(Cl)cc(Cl)c1
test_result: 94 % of control

compound: NNS(=O)(=O)c1ccc(OCC(=O)O)cc1
test_result: 97 % of control

compound: COc1ccc(NC(=O)c2cccc(C(=O)Nc3ccc(OC)cc3)c2)cc1
test_result: 108 % of control

compound: O=c1oc(-c2ccccc2I)nc2ccccc12
test_result: 94 % of control

compound: O=C1c2ccccc2C(=O)c2c1ccc(C(=O)O)c2-c1ccc2ccccc2c1
test_result: 99 % of control

compound: CCCCCCCCCCCCCCCCCCNC(=O)CCl
test_result: 86 % of control

compound: CCOC(CNC(=O)OCc1ccccc1)OCC
test_result: 93 % of control

compound: [O-][n+]1c(CN2CCCCC2)nc2cccc3c2c1-c1ccccc1-3
test_result: 113 % of control

----------
tested on: BDF1 mice, B16 melanoma ip, median survival T/C; test: NCI In Vivo Anticancer Drug Screen. Data for tumor model B16 Melanoma (intraperitoneal) in B6D2F1 (BDF1) mice; details: endpoint: median survival time; dose: 25.0 mg/kg/injection; schedule: Q01DX009 (ip); vehicle: water; higher = longer survival
Inconclusive results and toxic doses are left out.

compound: CC(=O)Oc1ccc(N2C(=O)C3C(C2=O)C2c4ccccc4C3C3CCCCN32)cc1 (centres undefined) (tested in a mixture with another compound)
tgt: BDF1 mice, B16 melanoma ip, median survival T/C
T/C: 97 % of control

compound: [O-]c1cc2c3c(c1)c1cc4c(cc1c[n+]3C=C2)OCO4
tgt: BDF1 mice, B16 melanoma ip, median survival T/C
T/C: 124 % of control

compound: O=C(O)c1nnc(C(=O)O)nn1
tgt: BDF1 mice, B16 melanoma ip, median survival T/C
T/C: 96 % of control

compound: COc1cccc(Cc2ccncc2)c1OC
tgt: BDF1 mice, B16 melanoma ip, median survival T/C
T/C: 104 % of control
